testSummary: Inhibition of Mycobacterium tuberculosis H37Ra menG assessed as inhibition of 2-methyl-3-(3,7,11-trimethyldodeca-2,6,10-trienyl)naphthalene-1,4-dione formation using 2-(3,7,11-trimethyldodeca-2,6,10-trienyl)naphthalene-1,4-dione as substrate incubated for 3 hrs in presence of SAM by HPLC analysis
The threshold is 10 µg/mL. Values of IC50 beneath it are tagged Fulfilled; values meeting or exceeding it are tagged Not fulfilled.

Lookup: API: query returns whether the molecule falls strictly under 10 µg/mL in IC50. Query: CC(C)=CCC/C(C)=C/COc1ccc(C(=O)OCCCOc2cccc(Nc3nc4ccccc4c(=O)o3)c2)cc1
Found: Fulfilled

Lookup: API: query returns whether the molecule falls strictly under 10 µg/mL in IC50. Query: CCCCOc1ccc(C(=O)OCCCOc2cccc(Nc3nc4ccccc4c(=O)o3)c2)cc1
Found: Not fulfilled

Lookup: API: query returns whether the molecule falls strictly under 10 µg/mL in IC50. Query: CCCCCCOc1ccc(C(=O)OCCCOc2cccc(Nc3nc4ccccc4c(=O)o3)c2)cc1
Found: Not fulfilled

Lookup: API: query returns whether the molecule falls strictly under 10 µg/mL in IC50. Query: CC(C)=CCC/C(C)=C/CC/C(C)=C/COc1ccc(C(=O)OCCCOc2cccc(Nc3nc4ccccc4c(=O)o3)c2)cc1
Found: Fulfilled

Lookup: API: query returns whether the molecule falls strictly under 10 µg/mL in IC50. Query: CCCCCOc1ccc(C(=O)OCCCOc2cccc(Nc3nc4ccccc4c(=O)o3)c2)cc1
Found: Not fulfilled

Origin of the recorded values: ChEMBL document CHEMBL4706595
